Source listed as patent US6734179B2.

The following compounds are shown together with reported Ki values.
Biological target: human adenosine A2A receptor (Homo sapiens)
Construct: expressed in transfected cells; host or cells: CHO cells, semliki forest virus expression system; membrane preparation
Experiment: [3H]-SCH-58261 binding assay, human adenosine A2A receptor expressed in CHO cell membranes (SPA)
Details: [3H]-SCH-58261 1 nM, Ki by Cheng-Prussoff equation, read-out: hA2 (pKi) (converted)
The response must be a number in nM with no trailing unit.

INSERT INTO results (compound, value_kind, unit, observed) VALUES
  ('COc1ccc(C2CCCCO2)c2sc(NC(=O)c3ccc(F)cc3)nc12 (stereo not drawn) [Example 40]', 'Ki', 'nM', 3.39),
  ('COc1ccc(C2CCOCC2)c2sc(NC(=O)c3ccnc(N4CCOCC4)c3)nc12 [Example 6]', 'Ki', 'nM', 0.759),
  ('COc1ccc(C2CCOCC2)c2sc(NC(=O)c3ccnc(CN4CCCC4)c3)nc12 [Example 43]', 'Ki', 'nM', 1.23),
  ('COc1ccc(C2CCOCC2)c2sc(NC(=O)N3CCC(O)CC3)nc12 [Example 45]', 'Ki', 'nM', 1.62);

Task: Dear colleague, please send me the reported Ki for COc1ccc(C2CCN(C(C)=O)CC2)c2sc(NC(=O)c3ccc(C)cc3)nc12 [Example 19] when you can.
Result: 3.98

Task: Please give measured Ki of the following entry: COc1ccc(C2CCOCC2)c2sc(NC(=O)c3ccc(F)cc3)nc12 [Example 3]
Result: 1.41

Task: Answer with reported Ki of COCCNc1cc(C(=O)Nc2nc3c(OC)ccc(C4CCOCC4)c3s2)ccn1 [Example 46]
Result: 0.871

====

Biological target: human adenosine A2A receptor (Homo sapiens)
Construct: expressed in transfected cells; host or cells: CHO cells, semliki forest virus expression system; membrane preparation
Assay: [3H]-SCH-58261 binding assay, human adenosine A2A receptor expressed in CHO cell membranes (SPA)
Conditions: [3H]-SCH-58261 1 nM, Ki by Cheng-Prussoff equation, read-out: hA2 (pKi) (converted)
Value Kind: Ki

Worked set:
INSERT INTO assay_data (molecule, observed) VALUES
  ('COc1ccc(C2CCCCO2)c2sc(NC(=O)c3ccnc(Br)c3)nc12 (stereo not drawn)', '3.8 nM'),
  ('COc1ccc(C2CCOCC2)c2sc(NC(=O)c3ccnc(C(C)C)c3)nc12', '1.17 nM'),
  ('COC(=O)Nc1nc2c(OC)ccc(C3CCOCC3)c2s1', '11.5 nM'),
  ('COCCN(C)Cc1ccc(C(=O)Nc2nc3c(OC)ccc(C4CCOCC4)c3s2)cc1', '2.4 nM'),
  ('COc1ccc(C2CCN(C(C)=O)CC2)c2sc(NC(=O)c3ccnc(C)c3)nc12', '6.31 nM');

Consider now this further molecule.
Task: Supply Ki value. Item: COc1ccc(C2CCOCC2)c2sc(NC(=O)c3ccnc(Br)c3)nc12
Result: 1.74 nM

====

Biological target: human adenosine A2A receptor (Homo sapiens, UniProt P29274)
Construct: expressed in transfected cells; host or cells: CHO cells, semliki forest virus expression system; membrane preparation
Sequence (P29274 whole entry): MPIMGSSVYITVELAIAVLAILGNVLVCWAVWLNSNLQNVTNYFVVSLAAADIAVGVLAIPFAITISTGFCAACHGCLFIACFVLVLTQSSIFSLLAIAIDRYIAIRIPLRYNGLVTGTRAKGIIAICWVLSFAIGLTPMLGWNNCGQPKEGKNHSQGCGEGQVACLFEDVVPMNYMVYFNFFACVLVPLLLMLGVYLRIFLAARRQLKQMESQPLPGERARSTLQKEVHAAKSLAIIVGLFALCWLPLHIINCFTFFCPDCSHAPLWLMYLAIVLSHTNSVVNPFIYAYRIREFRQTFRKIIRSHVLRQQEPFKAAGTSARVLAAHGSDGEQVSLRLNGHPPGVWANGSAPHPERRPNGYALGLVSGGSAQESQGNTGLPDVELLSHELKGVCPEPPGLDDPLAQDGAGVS
Test: [3H]-SCH-58261 binding assay, human adenosine A2A receptor expressed in CHO cell membranes (SPA)
Details: [3H]-SCH-58261 1 nM, Ki by Cheng-Prussoff equation, read-out: hA2 (pKi) (converted)
Consider the following compounds and their measured Ki readings.
A bare number is not enough; add the unit after it.

See these solved cases before continuing.
INSERT INTO measurements (compound, assay_system, observed) VALUES
  ('COc1ccc(C2CCN(C(C)=O)CC2)c2sc(NC(=O)c3ccc(F)cc3)nc12 [Example 12]', 'human adenosine A2A receptor (Homo sapiens, UniProt P29274)', '3.16 nM'),
  ('COc1ccc(C2=CCN(C(C)=O)CC2)c2sc(NC(=O)c3ccc(F)cc3)nc12 [Example 11]', 'human adenosine A2A receptor (Homo sapiens, UniProt P29274)', '5.01 nM'),
  ('COCCN(C)Cc1ccc(C(=O)Nc2nc3c(OC)ccc(C4CCCCC4)c3s2)cc1 [Example 24]', 'human adenosine A2A receptor (Homo sapiens, UniProt P29274)', '1.58 nM'),
  ('CCCc1cc(C(=O)Nc2nc3c(OC)ccc(C4CCOCC4)c3s2)ccn1 [Example 34]', 'human adenosine A2A receptor (Homo sapiens, UniProt P29274)', '1.82 nM'),
  ('COc1ccc(C2CCCCC2)c2sc(NC(=O)c3ccc(F)cc3)nc12 [Example 23]', 'human adenosine A2A receptor (Homo sapiens, UniProt P29274)', '0.2 nM');

Task: Provide one value: measured Ki of COC(=O)Nc1nc2c(OC)ccc(C3=CCCCC3)c2s1 [Example 22]
Result: 10 nM
